assay: Beagle dog pharmacokinetic test; format: in vivo; conditions: male, plasma, intravenous injection, 3 mg/kg
Measured Metric: half-life (h)
Provide only the numeric value, understood in h.

// recorded half-life for CCOc1cc2c(cc1OC)CCN(C=O)[C@H]2CCc1c[nH]c2ccc(OC)cc12 [(S)-C8] : 1.96

====

Would you mind telling me the reported Cell survival rate/% of each entry?
tested on: RAW 264.7 cells; experiment: Cytotoxicity on RAW 264.7 cells (CCK-8 method); assay type: cell-based, mouse; conditions: RAW 264.7, 5 μM
Provide only the numeric value, understood in %.

# value of Cell survival rate/%, RAW 264.7 cells, item COc1cc2c(cc1OC)C(Cc1c[nH]c3ccccc13)N(CCS(C)(=O)=O)CC2 (stereo not shown) [Compound C12] = 115.7

# value of Cell survival rate/%, RAW 264.7 cells, item CCOc1cc2c(cc1OC)CCN(C=O)[C@H]2CCc1c[nH]c2ccc(OC)cc12 [(S)-C8] = 96.1

# value of Cell survival rate/%, RAW 264.7 cells, item CCOc1cc2c(cc1OC)CCN(C=O)[C@H]2Cc1c[nH]c2ccc(C)cc12 [(S)-C17] = 87.3

# value of Cell survival rate/%, RAW 264.7 cells, item COc1cc2c(cc1OC)C(CCc1c[nH]c3ccccc13)N(CC1CCOCC1)CC2 (stereo not shown) [Compound B7] = 114.1

====

system: RAW 264.7 cells; assay: Cytotoxicity on RAW 264.7 cells (CCK-8 method); format: cell-based, mouse; conditions: RAW 264.7, 50 μM
Measured Metric: Cell survival rate/% (%)
Provide only the numeric value, understood in %.

// recorded Cell survival rate/% for COc1cc2c(cc1OC)[C@H](CCc1c[nH]c3cc(F)ccc13)N(C=O)CC2 [(S)-C6] : 93.7

// recorded Cell survival rate/% for COc1cc2c(cc1OCc1ccccc1)C(CCc1c[nH]c3ccccc13)N(C=O)CC2 (stereo not shown) [Compound A5] : 111.3

// recorded Cell survival rate/% for COCC(=O)N1CCc2cc(OC)c(OC)cc2C1Cc1c[nH]c2ccccc12 (stereo not shown) [Compound C11] : 87.3

// recorded Cell survival rate/% for COc1cc2c(cc1OC)C(CCc1c[nH]c3ccccc13)N(CC1CCOCC1)CC2 (stereo not shown) [Compound B7] : 122.6

====

molecular target: Human PDE4D catalytic domain (Homo sapiens (Human), UniProt Q08499); assay: Scintillation Proximity Assay (SPA), inhibition of PDE4D catalytic domain activity; type: biochemical; conditions: Compound concentration: 1 μM; read-out: PDE4D enzyme activity inhibition rate %
Sequence (Q08499 386-715): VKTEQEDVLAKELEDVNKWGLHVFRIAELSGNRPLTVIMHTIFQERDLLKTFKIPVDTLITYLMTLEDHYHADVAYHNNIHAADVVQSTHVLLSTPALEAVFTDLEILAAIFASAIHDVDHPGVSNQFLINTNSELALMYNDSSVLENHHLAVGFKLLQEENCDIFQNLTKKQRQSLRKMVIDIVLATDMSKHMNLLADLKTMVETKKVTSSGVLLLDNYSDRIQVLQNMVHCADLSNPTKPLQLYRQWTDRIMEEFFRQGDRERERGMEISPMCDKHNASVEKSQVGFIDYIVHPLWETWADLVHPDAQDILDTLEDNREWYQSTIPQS
Measured Metric: inhibition at 1 µM (%)
Provide only the numeric value, understood in %.

# value of inhibition at 1 µM, Human PDE4D catalytic domain (Homo sapiens (Human), UniProt Q08499), item CCOc1cc2c(cc1OC)CCN(C(=O)C(F)F)[C@H]2CCc1c[nH]c2ccc(OC)cc12 [(S)-C59] = 42.4

# value of inhibition at 1 µM, Human PDE4D catalytic domain (Homo sapiens (Human), UniProt Q08499), item CCOc1cc2c(cc1OC)CCN(S(=O)(=O)c1ccc(Br)c(F)c1)[C@H]2CCc1c[nH]c2ccc(OC)cc12 [(S)-C56] = 66.4

# value of inhibition at 1 µM, Human PDE4D catalytic domain (Homo sapiens (Human), UniProt Q08499), item COc1cc2c(cc1OC)C(CCc1c[nH]c3ccccc13)N(C(=O)C1CCOCC1)CC2 (stereo not shown) = 16.4

# value of inhibition at 1 µM, Human PDE4D catalytic domain (Homo sapiens (Human), UniProt Q08499), item COc1cc2c(cc1OC1CCCC1)[C@H](CCc1c[nH]c3cc(C)ccc13)N(C=O)CC2 [(S)-C3] = 24.1

====

tested on: RAW 264.7 cells; experiment: Cytotoxicity on RAW 264.7 cells (CCK-8 method); type: cell-based, mouse; conditions: RAW 264.7, 5 μM
Measured Metric: Cell survival rate/% (%)
Provide only the numeric value, understood in %.

// recorded Cell survival rate/% for COc1cc2c(cc1OC)C(CCc1c[nH]c3ccccc13)N(CC(F)(F)F)CC2 (centres unmarked) : 87

// recorded Cell survival rate/% for COc1cc2c(cc1OC1CCCC1)[C@H](CCc1c[nH]c3cc(C)ccc13)N(C=O)CC2 [(S)-C3] : 100

// recorded Cell survival rate/% for CCOc1cc2c(cc1OC)CCN(C=O)[C@H]2CCc1c[nH]c2ccccc12 [(S)-A4] : 100.8

// recorded Cell survival rate/% for CCOc1cc2c(cc1OC)CCN(C=O)C2Cc1c[nH]c2ccccc12 (centres unmarked) : 111.4

// recorded Cell survival rate/% for CCOc1cc2c(cc1OC)CCN(C(=O)COC)[C@H]2CCc1c[nH]c2ccccc12 [(S)-B12] : 95.3

// recorded Cell survival rate/% for COc1cc2c(cc1OC)C(CCc1c[nH]c3ccccc13)N(C(=O)C1CCOCC1)CC2 (centres unmarked) : 113.9

// recorded Cell survival rate/% for COc1cc2c(cc1OC)[C@H](Cc1c[nH]c3ccccc13)N(C(=O)CS(C)(=O)=O)CC2 [(S)-C13] : 91.4

// recorded Cell survival rate/% for COc1cc2c(cc1OC1CCCC1)C(CCc1c[nH]c3cc(C)ccc13)N(C=O)CC2 (centres unmarked) : 120.5

// recorded Cell survival rate/% for COc1cc2c(cc1OC)[C@H](CCc1c[nH]c3ccccc13)N(C(=O)C(F)(F)F)CC2 [(S)-B10] : 84.9

// recorded Cell survival rate/% for COc1cc2c(cc1OCC1CC1)C(CCc1c[nH]c3ccccc13)N(C=O)CC2 (centres unmarked) : 108.2

// recorded Cell survival rate/% for COC(=O)CN1CCc2cc(OC)c(OC)cc2C1CCc1c[nH]c2ccccc12 (centres unmarked) : 88.2

// recorded Cell survival rate/% for COCC(=O)N1CCc2cc(OC)c(OC)cc2[C@@H]1CCc1c[nH]c2ccccc12 [(S)-B11] : 111.2

// recorded Cell survival rate/% for CCOc1cc2c(cc1OC)CCN(C=O)[C@H]2Cc1c[nH]c2ccc(OC)cc12 [(S)-C18] : 111.5

// recorded Cell survival rate/% for COc1cc2c(cc1OC)[C@H](CCc1c[nH]c3cc(C)ccc13)N(C=O)CC2 [(S)-C5] : 109.4

// recorded Cell survival rate/% for CCOc1cc2c(cc1OC)CCN(C=O)[C@H]2Cc1c[nH]c2ccccc12 [(S)-C10] : 84.6

// recorded Cell survival rate/% for CCOc1cc2c(cc1OC)CCN(C(=O)CS(C)(=O)=O)[C@H]2Cc1c[nH]c2ccccc12 [(S)-C15] : 110.5

// recorded Cell survival rate/% for COCCN1CCc2cc(OC)c(OC)cc2C1CCc1c[nH]c2ccccc12 (centres unmarked) : 83.5

// recorded Cell survival rate/% for CCOc1cc2c(cc1OC)CCN(C=O)[C@H]2CCc1c[nH]c2cc(C)ccc12 [(S)-C7] : 93.4

// recorded Cell survival rate/% for COc1cc2c(cc1OCC1CC1)[C@H](CCc1c[nH]c3ccccc13)N(C=O)CC2 [(S)-A3] : 86.5

// recorded Cell survival rate/% for COc1cc2c(cc1OCC1CC1)[C@H](CCc1c[nH]c3cc(C)ccc13)N(C=O)CC2 [(S)-C4] : 71.8

// recorded Cell survival rate/% for CCOc1cc2c(cc1OC)CCN(C(=O)COC)[C@H]2Cc1c[nH]c2ccccc12 [(S)-C16] : 133.1

// recorded Cell survival rate/% for COc1cc2c(cc1OC)C(CCc1c[nH]c3ccccc13)N(C(=O)c1ccncc1)CC2 (centres unmarked) : 74.9

// recorded Cell survival rate/% for COCC(=O)N1CCc2cc(OC)c(OC)cc2C1Cc1c[nH]c2ccccc12 (centres unmarked) : 91.2

// recorded Cell survival rate/% for COc1cc2c(cc1OC)C(CCc1c[nH]c3ccccc13)N(CCS(C)(=O)=O)CC2 (centres unmarked) : 100.7

// recorded Cell survival rate/% for CCOc1cc2c(cc1OC)CCN(CCS(C)(=O)=O)[C@H]2Cc1c[nH]c2ccccc12 [(S)-C14] : 98.8

// recorded Cell survival rate/% for COc1cc2c(cc1OC1CCCC1)C(CCc1c[nH]c3ccccc13)N(C=O)CC2 (centres unmarked) : 113

// recorded Cell survival rate/% for COc1cc2c(cc1OC1CCCC1)C(CCc1c[nH]c3ccc(Br)cc13)N(C=O)CC2 (centres unmarked) : 125.1

// recorded Cell survival rate/% for COCC(=O)N1CCc2cc(OC)c(OC)cc2C1CCc1c[nH]c2ccccc12 (centres unmarked) : 82.7

// recorded Cell survival rate/% for CCOc1cc2c(cc1OC)CCN(C=O)C2CCc1c[nH]c2ccccc12 (centres unmarked) : 113.4

// recorded Cell survival rate/% for COc1cc2c(cc1OCc1ccccc1)C(CCc1c[nH]c3ccccc13)N(C=O)CC2 (centres unmarked) : 120.8

// recorded Cell survival rate/% for COc1cc2c(cc1OC1CCCC1)C(CCc1c[nH]c3ccc(C)cc13)N(C=O)CC2 (centres unmarked) : 106.3

// recorded Cell survival rate/% for COc1cc2c(cc1OC)[C@H](CCc1c[nH]c3cc(F)ccc13)N(C=O)CC2 [(S)-C6] : 118.4
